Target: ROCK1 kinase (Homo sapiens, UniProt Q13464)
Sequence (Q13464 whole entry): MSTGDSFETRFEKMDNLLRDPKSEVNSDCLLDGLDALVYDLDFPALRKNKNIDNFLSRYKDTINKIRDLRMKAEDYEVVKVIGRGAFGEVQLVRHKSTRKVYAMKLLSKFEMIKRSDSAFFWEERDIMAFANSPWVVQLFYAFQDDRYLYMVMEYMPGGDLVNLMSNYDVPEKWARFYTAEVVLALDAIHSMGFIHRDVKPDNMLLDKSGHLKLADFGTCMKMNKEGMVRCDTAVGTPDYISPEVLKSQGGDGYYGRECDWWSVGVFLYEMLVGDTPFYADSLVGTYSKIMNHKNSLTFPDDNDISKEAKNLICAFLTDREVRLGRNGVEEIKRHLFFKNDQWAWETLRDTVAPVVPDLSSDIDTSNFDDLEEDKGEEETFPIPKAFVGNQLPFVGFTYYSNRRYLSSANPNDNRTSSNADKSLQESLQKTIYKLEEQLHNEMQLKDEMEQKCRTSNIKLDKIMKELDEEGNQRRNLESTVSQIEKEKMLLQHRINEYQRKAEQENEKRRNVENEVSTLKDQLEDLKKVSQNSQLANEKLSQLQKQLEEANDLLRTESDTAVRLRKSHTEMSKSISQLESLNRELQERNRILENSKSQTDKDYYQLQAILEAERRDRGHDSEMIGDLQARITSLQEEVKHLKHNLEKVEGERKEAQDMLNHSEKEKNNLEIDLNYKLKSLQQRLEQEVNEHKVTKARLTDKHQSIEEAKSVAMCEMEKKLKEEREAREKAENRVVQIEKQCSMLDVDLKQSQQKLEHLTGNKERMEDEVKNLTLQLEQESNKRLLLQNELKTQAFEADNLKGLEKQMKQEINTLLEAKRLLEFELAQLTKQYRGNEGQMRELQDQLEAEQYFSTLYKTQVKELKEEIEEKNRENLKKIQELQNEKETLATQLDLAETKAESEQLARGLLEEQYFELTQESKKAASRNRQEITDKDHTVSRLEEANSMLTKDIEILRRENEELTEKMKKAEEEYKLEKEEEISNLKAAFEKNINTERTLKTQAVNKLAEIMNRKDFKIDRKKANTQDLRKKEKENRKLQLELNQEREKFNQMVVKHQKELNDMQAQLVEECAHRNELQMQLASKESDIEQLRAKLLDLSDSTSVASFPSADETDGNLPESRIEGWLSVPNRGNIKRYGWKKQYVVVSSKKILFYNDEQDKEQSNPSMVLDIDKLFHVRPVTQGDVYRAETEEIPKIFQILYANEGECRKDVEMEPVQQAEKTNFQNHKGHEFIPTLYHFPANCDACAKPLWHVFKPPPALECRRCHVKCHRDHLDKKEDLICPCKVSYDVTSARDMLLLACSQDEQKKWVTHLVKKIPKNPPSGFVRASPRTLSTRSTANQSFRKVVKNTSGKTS
MEASURE: IC50

Use these answered entries as a reference point.
{"columns": ["SMILES_STRING", "READING"],
 "data": [
  ["CN1CC(NC(=O)c2cccc(CNC(=O)N3CCc4cc(-c5cn[nH]c5)c(F)cc43)c2)C1", "≤ 50 nM"],
  ["COc1cc(F)cc(CNC(=O)N2CCc3cc(-c4cn[nH]c4)c(F)cc32)c1", "≤ 50 nM"]
]}

// next item, IC50 requested
Name the reported IC50 value associated with the compound O=C(N[C@H](CO)c1cc(F)cc(OCC2CC2)c1)N1CCc2cc(-c3cn[nH]c3)c(F)cc21
50 to 500 nM
